- MEASURED ON: T1, biotinylated human BCMA-Fc, Avitag recombinant protein (ACRO Biosystems, #BC7-H82F0) (human, UniProt Q02223 1-54, biotinylated)
- T1 construct: extracellular domain; Bought protein; also called human BCMA protein; recombinant human BCMA-ECD-Fc; not shown: Fc of the bought fusion protein; Avitag
- T1 sequence (looked up): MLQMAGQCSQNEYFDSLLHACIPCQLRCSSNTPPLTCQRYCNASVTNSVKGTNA
- ASSAY METHOD TEXT: BLI (Octet Red96e), biotinylated BCMA-Fc on SA sensor, VH supernatant, 100 nM, single concentration
I'd appreciate it if you could supply Response values for the items below.
One number for each entry.

PR004561, PR001046 VH-derived single-domain variant 1046-R2-10H1 (VHH, Tested as VH single domain with Flag and His tags; not shown: Flag and His tags) VHH: EVQLVETGGGLIQPGGSLRLSCAASGFTVSDSYMTWVRQAPGKGLEWVSVIFSGGNTYYADSVKGRFTISRDNAKNTLYLQMNSLRAEDTALYYCARRNYDQTLGTDVFDIWGQGTMVTVSS | 0.269
PR004562, PR001046 VH-derived single-domain variant 1046-R2-10H5 (VHH, Tested as VH single domain with Flag and His tags; not shown: Flag and His tags) VHH: EVQLVETGGGLIQPGGSLRLSCAASGFTVSDSYMTWVRQAPGKGLEWVSVIFSGGKTYYSDSVKGRFTISRDNAKNTLYLQMNSLRAEDTALYYCARRNYDQTLGTDVFDIWGQGTMVTVSS | 0.535
PR004569, PR001046 VH-derived single-domain variant 1046-R2-5H2 (VHH, Tested as VH single domain with Flag and His tags; not shown: Flag and His tags) VHH: EVQLVETGGGLIQPGGSLRLSCAASGFTVSDSYMTWVRQAPGKGLEWVSVIFSGGRTYYSDSVKGRFTISRDNAKNTLYLQMNSLRAEDTALYYCARRNYDQTRGTDVFDIWGQGTMVTVSS | 0.73
PR004564, PR001046 VH-derived single-domain variant 1046-R2-2D4 (VHH, Tested as VH single domain with Flag and His tags; not shown: Flag and His tags) VHH: EVQLVETGGGLIQPGGSLRLSCAASGFTVSDSYMTWVRQAPGKGLEWVSVIFSGGRTYYSDSVKGRFTISRDNAKNTLYLQMNSLRAEDTALYYCARRNYDQTLGTDVFDIWGQGTMVTVSS | 0.57
PR004574, PR001046 VH-derived single-domain variant 1046-R2-9E5 (VHH, Tested as VH single domain with Flag and His tags; not shown: Flag and His tags) VHH: EVQLVETGGGLIQPGGSLRLSCAASGFTVSDAYMTWVRQAPGKGLEWVSVIFSGGRTYYSDSVKGRFTISRDNAKNTLYLQMNSLRAEDTALYYCARRNYDQTRGTDVFDIWGQGTMVTVSS | 0.29
PR004568, PR001046 VH-derived single-domain variant 1046-R2-5H1 (VHH, Tested as VH single domain with Flag and His tags; not shown: Flag and His tags) VHH: EVQLVETGGGLIQPGGSLRLSCAASGFTVSDAYMTWVRQAPGKGLEWVSVIFSGGRTYVADSVKGRFTISRDNAKNTLYLQMNSLRAEDTALYYCARRNYDDTRGTDVFDIWGQGTMVTVSS | 0.733
PR004559, PR001046 VH-derived single-domain variant 1046-R1-12G7 (VHH, Tested as VH single domain with Flag and His tags; also called PR001046-R1-12G7; not shown: Flag and His tags) VHH: EVQLVETGGGLIQPGGSLRLSCAASGFTVSDNYMTWVRQAPGKGLEWVSVIFSGGKTYYADSVKGRFTISRDNAKNTLYLQMNSLRAEDTALYYCARRNYDDTRGTDVFDIWGQGTMVTVSS | 0.261
PR001046 VH single-domain molecule (original molecule) (VHH, not the HCAb form; not shown: Flag and His tags) VHH: EVQLVETGGGLIQPGGSLRLSCAASGFTVSDNYMTWVRQAPGKGLEWVSVIFSGGNTYYADSVKGRFTISRDNAKNTLYLQMNSLRAEDTALYYCARRNYDDTRGTDVFDIWGQGTMVTVSS | 0.261

Pending binder:
stdin: What value of Response has been reported for the following binder? PR004563, PR001046 VH-derived single-domain variant 1046-R2-1A1 (VHH, Tested as VH single domain with Flag and His tags; not shown: Flag and His tags) VHH: EVQLVETGGGLIQPGGSLRLSCAASGFTVYDNYMTWVRQAPGKGLEWVSVIFSGGKTYVADSVKGRFTISRDNAKNTLYLQMNSLRAEDTALYYCARRNYDQTRGTDVFDIWGQGTMVTVSS
stdout: 0.493
